tested-target: SR Ca^2+-ATPase (Canis lupus familiaris, UniProt O46674)
Construct: Effect of gingerols and their derivatives on the Ca^2+-ATPase activity of dog cardiac SR; from tissue; host or cells: dog heart (cardiac sarcoplasmic reticulum)
Sequence (O46674 whole entry): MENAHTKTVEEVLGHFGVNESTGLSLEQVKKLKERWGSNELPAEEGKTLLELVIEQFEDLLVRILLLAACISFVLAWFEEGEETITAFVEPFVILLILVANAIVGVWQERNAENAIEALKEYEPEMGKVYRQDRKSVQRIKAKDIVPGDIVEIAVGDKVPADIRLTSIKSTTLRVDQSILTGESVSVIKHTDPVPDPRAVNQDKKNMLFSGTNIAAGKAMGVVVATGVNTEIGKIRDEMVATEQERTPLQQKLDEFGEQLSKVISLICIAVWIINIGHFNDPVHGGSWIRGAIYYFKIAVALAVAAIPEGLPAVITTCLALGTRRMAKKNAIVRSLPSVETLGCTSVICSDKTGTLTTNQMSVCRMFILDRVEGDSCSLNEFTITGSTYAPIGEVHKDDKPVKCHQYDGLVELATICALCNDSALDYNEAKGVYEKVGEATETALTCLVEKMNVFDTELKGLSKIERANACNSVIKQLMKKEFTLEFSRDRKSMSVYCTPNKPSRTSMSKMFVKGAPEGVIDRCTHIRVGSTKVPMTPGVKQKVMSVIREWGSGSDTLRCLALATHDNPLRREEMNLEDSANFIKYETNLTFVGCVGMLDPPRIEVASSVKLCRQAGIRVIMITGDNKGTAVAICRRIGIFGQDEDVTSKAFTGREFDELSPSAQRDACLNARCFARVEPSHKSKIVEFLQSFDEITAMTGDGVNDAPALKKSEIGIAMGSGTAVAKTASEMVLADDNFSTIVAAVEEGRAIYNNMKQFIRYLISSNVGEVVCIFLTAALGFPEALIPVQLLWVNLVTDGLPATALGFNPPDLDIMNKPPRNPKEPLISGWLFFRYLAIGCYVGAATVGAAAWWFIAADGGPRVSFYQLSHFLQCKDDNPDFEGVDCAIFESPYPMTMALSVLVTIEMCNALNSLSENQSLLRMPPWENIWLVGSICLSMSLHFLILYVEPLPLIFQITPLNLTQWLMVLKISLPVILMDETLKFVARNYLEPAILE
assay-summary: Sarcoplasmic reticulum Ca^2+-ATPase assay
Type: biochemical, dog
stated-conditions: 25 µM; 0 µM = 100; dog cardiac SR
quantity: SR Ca^2+-ATPase Activity

[[record]]
compound = "CCCCCCCCCC(O)CCc1ccc(O)c(OC)c1 (stereo not shown)"
numeric_value = 140

[[record]]
compound = "CCCCCC(O)CC(=O)CCc1ccc(O)c(OC)c1 (stereo not shown) [[6]-gingerol, reference compound]"
numeric_value = 137

[[record]]
compound = "CCCCCCCC(O)CC(=O)CCc1ccc(O)c(OC)c1 (stereo not shown) [[8]-gingerol, reference compound]"
numeric_value = 200

[[record]]
compound = "CCCCCCCC(O)CC(=O)C=Cc1ccc(O)c(OC)c1 (stereo not shown) [[8]-dehydrogingerol, reference compound]"
numeric_value = 95

[[record]]
compound = "CCCCCCCC(O)CC(=O)c1ccc(O)c(OC)c1 (stereo not shown)"
numeric_value = 195

[[record]]
compound = "CCCCCCCCCC(O)CC(=O)c1ccc(O)c(OC)c1 (stereo not shown)"
numeric_value = 147

[[record]]
compound = "CCCCCCCC(O)CCCCc1ccc(O)c(OC)c1 (stereo not shown)"
numeric_value = 158


---

tested-target: SR Ca^2+-ATPase (Canis lupus familiaris)
Construct: Effect of gingerols and their derivatives on the Ca^2+-ATPase activity of dog cardiac SR
assay-summary: Sarcoplasmic reticulum Ca^2+-ATPase assay
stated-conditions: read-out: SR Ca^2+-ATPase IC50 = conc. for 50% inhibition
pIC50: −log10 of the molar value.
quantity: pIC50

[[record]]
molecule = "CCCCCCCC(O)CC(=O)CCc1ccc(O)cc1 (stereo not drawn) [[8]-demethoxygingerol]"
quantity = "pIC50"
result = "< 4.00"

[[record]]
molecule = "CCCCCCCC(O)CCCCc1ccc(O)c(OC)c1 (stereo not drawn)"
quantity = "pIC50"
result = "~4.60"

[[record]]
molecule = "CCCCCC(O)CC(=O)CCc1ccc(O)c(OC)c1 (stereo not drawn) [[6]-gingerol, reference compound]"
quantity = "pIC50"
result = "< 4.00"

[[record]]
molecule = "CCCCCCCC(O)CC(=O)C=Cc1ccc(O)c(OC)c1 (stereo not drawn) [[8]-dehydrogingerol, reference compound]"
quantity = "pIC50"
result = "~4.30"

[[record]]
molecule = "CCCCCCCC(O)CC(=O)CCc1ccc(O)c(OC)c1 (stereo not drawn) [[8]-gingerol, reference compound]"
quantity = "pIC50"
result = "~4.00"

[[record]]
molecule = "CCCCCC(O)CC(=O)CCc1ccc(O)cc1 (stereo not drawn) [[6]-demethoxygingerol, 5-hydroxy-1-(4-hydroxyphenyl)decan-3-one]"
quantity = "pIC50"
result = "< 4.00"

[[record]]
molecule = "CCCCCCCC(O)CC(=O)CCc1ccc(OC)c(O)c1 (stereo not drawn) [[8]-isogingerol, reference compound]"
quantity = "pIC50"
result = "< 4.00"

[[record]]
molecule = "CCCCCCCC(O)CC(=O)c1ccc(O)c(OC)c1 (stereo not drawn)"
quantity = "pIC50"
result = "~4.30"

[[record]]
molecule = "CCCCCCCC(O)CC(=O)CCc1cccc(OC)c1O (stereo not drawn) [[8]-orthogingerol]"
quantity = "pIC50"
result = "< 4.00"

